# Signal decrease per entry
- study target: T1, biotin-labeled human CD137 fused to human IgG1 Fc fragment (human, biotin-labeled)
- T1 construct: also called human CD137-Fc; biotin-human CD137-Fc
- T1 sequence (chain, as listed by the source limits assumed): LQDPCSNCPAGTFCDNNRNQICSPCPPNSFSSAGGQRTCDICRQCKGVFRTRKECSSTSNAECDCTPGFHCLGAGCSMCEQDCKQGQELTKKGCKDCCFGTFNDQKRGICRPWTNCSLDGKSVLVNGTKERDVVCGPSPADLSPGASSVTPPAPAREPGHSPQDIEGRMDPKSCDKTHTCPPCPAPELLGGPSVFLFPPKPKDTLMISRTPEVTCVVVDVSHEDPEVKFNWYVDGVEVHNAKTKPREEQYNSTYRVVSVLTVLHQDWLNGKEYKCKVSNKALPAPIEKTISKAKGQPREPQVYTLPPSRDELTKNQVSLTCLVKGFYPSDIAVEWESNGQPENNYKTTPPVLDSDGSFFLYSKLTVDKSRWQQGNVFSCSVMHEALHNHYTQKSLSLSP
- method notes: bead ELISA, IgG on biotin-human CD137-Fc; signal with free CD3e 62.5 pmol against free Fc 62.5 pmol
measured property: Signal decrease (%)

[[record]]
binder = "dBBDu_H115/L016 (antibody, human IgG1, V domains shown, Full length IgG (human IgG1 CH1-Fc heavy chain, kappa light chain)) VH: QVQLVESGGGLVQPGRSLRLSCAASGFTFSNAWMHWVRQAPGKGLEWVAQIKDKANSYNTYYAPSVKGRFTISRDDSKNSIYLQMNSLKTEDTAVYYCRYVHYGSSYGFLFAGYGVDAWGQGTTVTVSS VL: DIVMTQSPMSLPVTPGEPASISCQSSESLLHANRNTYLHWYQQKPGQAPRLLIYKVSNRFNGVPDRFSGSGSGTDFTLKISRVEAEDVGVYYCAQGTANPYTFGQGTKLEIK"
measured_property = "Signal decrease"
value_unit = "%"
assay_result = 96.7

[[record]]
binder = "dBBDu_H115/L014 (antibody, human IgG1, V domains shown, Full length IgG (human IgG1 CH1-Fc heavy chain, kappa light chain)) VH: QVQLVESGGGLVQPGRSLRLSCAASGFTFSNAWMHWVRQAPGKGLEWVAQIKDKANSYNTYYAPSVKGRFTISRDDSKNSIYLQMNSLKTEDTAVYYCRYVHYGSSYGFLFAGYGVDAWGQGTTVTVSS VL: DIVMTQSPLSLPVTPGEPASISCTSSQSLLHQNRNTYLHWYQQKPGQAPRLLIYKVSNRFNGVPDRFSGSGSGTDFTLKISRVEAEDVGVYYCAQGTANPFTFGQGTKLEIK"
measured_property = "Signal decrease"
value_unit = "%"
assay_result = 97.9

[[record]]
binder = "dBBDu_H115/L008 (antibody, V domains shown, Full length IgG (human IgG1 CH1-Fc heavy chain, kappa light chain); also called Du115/DUL008) VH: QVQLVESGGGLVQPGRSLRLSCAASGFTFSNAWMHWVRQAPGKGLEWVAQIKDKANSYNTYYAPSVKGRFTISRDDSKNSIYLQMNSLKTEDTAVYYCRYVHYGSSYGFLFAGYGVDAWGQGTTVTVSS VL: DIVMTQSPLSLPVTPGEPASISCQSSEELLHANRKTYLHWYQQKPGQAPRLLIYKVQNRFSGVPDRFSGSGSGTDFTLKISRVEAEDVGVYYCAQGTATPFTFGQGTKLEIK"
measured_property = "Signal decrease"
value_unit = "%"
assay_result = 98.1

[[record]]
binder = "dBBDu_H115/L039 (antibody, human IgG1, V domains shown, Full length IgG (human IgG1 CH1-Fc heavy chain, kappa light chain)) VH: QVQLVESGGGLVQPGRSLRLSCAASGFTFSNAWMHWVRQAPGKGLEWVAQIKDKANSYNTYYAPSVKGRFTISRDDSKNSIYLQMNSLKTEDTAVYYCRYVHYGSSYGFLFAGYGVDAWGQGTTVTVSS VL: DIVMTQSPLSLPVTPGEPASISCTSSQSLLHANRNTYLHWYQQKPGQAPRLLIYKVSNRFSGVPDRFSGSGSGTDFTLKISRVEAEDVGVYYCAQGTSAPFTFGQGTKLEIK"
measured_property = "Signal decrease"
value_unit = "%"
assay_result = 97.2

